system: HBV viral production from HepAD38 cells; experiment: Activity of test compounds on viral production from HepAD38 cells (viral load by qPCR of HBV core sequence in supernatant); assay type: cell-based; conditions: Hepatitis B virus, 120 h, 5 days incubation, HBV DNA in supernatant by qPCR, top concentration 10 μM, read-out: Viral Load EC50 Activity range
pEC50: −log10 of the molar value.
Measured pEC50 by item

Study these solved cases before continuing.
CN1[C@H](C(=O)Nc2ccc(F)c(Cl)c2)C[C@H](c2ccc(-c3cccs3)s2)NS1(=O)=O	> 6.00
CN1C(C(=O)Nc2ccc(F)c(Cl)c2)CC(c2ncc(-c3ccn(C)n3)s2)NS1(=O)=O (racemic)	> 6.00
[2H]C([2H])([2H])N1[C@@H](C(=O)Nc2ccc(F)c(Cl)c2)C[C@@H](c2ncc(-c3cn(C([2H])([2H])[2H])cn3)s2)NS1(=O)=O (relative stereo)	5.30 to 6.00
O=C(Nc1ccc(F)c(Cl)c1)C1CC(c2nccs2)NS(=O)(=O)N1CCO (centres unmarked)	< 5.30

*Q* What pEC50 value was documented for this molecule, "CN1[C@@H](C(=O)Nc2ccc(F)c(Cl)c2)C[C@@H](c2cc(-c3ncnn3C)cs2)NS1(=O)=O" ?
*A* 5.30 to 6.00

*Q* What pEC50 value was documented for this molecule, "COCCN1[C@H](C(=O)Nc2ccc(F)c(Br)c2)C[C@H](c2nccs2)NS1(=O)=O" ?
*A* > 6.00

*Q* What pEC50 value was documented for this molecule, "CN1[C@H](C(=O)Nc2ccc(F)c(Cl)c2)C[C@H](c2cc(Cc3ccccc3)cs2)NS1(=O)=O" ?
*A* > 6.00

*Q* What pEC50 value was documented for this molecule, "CN1[C@H](C(=O)Nc2ccc(F)c(Cl)c2)C[C@H](c2cc(-c3cnn(C)c3)cs2)NS1(=O)=O" ?
*A* > 6.00

*Q* What pEC50 value was documented for this molecule, CN1C(C(=O)Nc2ccc(F)c(Cl)c2)CC(c2ncc(-c3ccccc3)s2)NS1(=O)=O (centres unmarked) ?
*A* > 6.00

*Q* What pEC50 value was documented for this molecule, CN1C(C(=O)Nc2ccc(F)c(Cl)c2)CC(c2nc3ccccc3s2)NS1(=O)=O (racemic) ?
*A* > 6.00

*Q* What pEC50 value was documented for this molecule, "COCCN1[C@H](c2cccs2)C[C@H](C(=O)Nc2ccc(F)c(Cl)c2)NS1(=O)=O" ?
*A* < 5.30

*Q* What pEC50 value was documented for this molecule, "CN1[C@H](C(=O)Nc2ccc(F)c(Cl)c2)C[C@H](c2ccc(-c3ccnn3C)s2)NS1(=O)=O" ?
*A* > 6.00

*Q* What pEC50 value was documented for this molecule, CN1C(C(=O)Nc2ccc(F)c(Cl)c2)CC(c2cccs2)N(C)S1(=O)=O (centres unmarked) ?
*A* 5.30 to 6.00

*Q* What pEC50 value was documented for this molecule, "Cc1c(-c2ccc([C@@H]3C[C@H](C(=O)Nc4ccc(F)c(Cl)c4)N(C)S(=O)(=O)N3)s2)cnn1C" ?
*A* 5.30 to 6.00
